meta.source: patent US12495798B2

tested on: wheat; assay: Phytotoxicity test for upland field crops (foliar treatment test); type: in vivo; conditions: 100 g ai/ha, Wheat (7 days after treatment)
Recorded Foliar treatment phytotoxicity, Wheat, one value per entry.
Field format: numeric only.

In the examples that follow, each entry is paired with its recorded Foliar treatment phytotoxicity, Wheat.
COMPOUND SMILES	Foliar treatment phytotoxicity, Wheat
Cn1nnc(CSCc2nc(C(F)F)ccc2C(=O)Nc2nnnn2C)n1	4
Cc1nc(COCc2nc(C(F)(F)F)ccc2C(=S)Nc2nnnn2C)nn1C	1
Cn1nnc(COCc2nc(C(F)(F)Cl)ccc2C(=O)Nc2nnnn2C)n1	0
Cn1nnc(CSCc2nc(C(F)(F)F)ccc2C(=O)N(C(=O)c2ccccc2)c2nnnn2C)n1	3
CCCn1nnnc1NC(=O)c1ccc(C(F)(F)F)nc1COCc1nc(C(F)F)n(C)n1	1

Prompt: Report Foliar treatment phytotoxicity, Wheat for Cn1nc(COCc2nc(C(F)(F)F)ccc2C(=O)Nc2nnnn2C)nc1C#N please.
Response: 0

Prompt: Report Foliar treatment phytotoxicity, Wheat for COCn1nnc(COCc2nc(C(F)(F)F)ccc2C(=O)Nc2nnnn2C)n1 please.
Response: 0

Prompt: Report Foliar treatment phytotoxicity, Wheat for C=Cc1nc(COCc2nc(C(F)(F)F)ccc2C(=O)Nc2nnnn2C)nn1C please.
Response: 0

* * *

test system: corn; assay: Phytotoxicity test for field crops (soil treatment test); assay type: in vivo; parameters: key: 0 (no harm); 9 (complete withered); details: 50 g ai/ha; Corn (10 days after treatment)
REPORTED ENDPOINT: Soil treatment phytotoxicity, Corn

In the examples that follow, each entry is paired with its recorded Soil treatment phytotoxicity, Corn.
COMPOUND SMILES	REPORTED ENDPOINT	VALUE MEASURED
Cn1nc(COCc2nc(C(F)(F)F)ccc2C(=O)Nc2nnnn2C)nc1Br	Soil treatment phytotoxicity, Corn	0
CON(Cc1nnn(C)n1)c1nc(C(F)(F)F)ccc1C(=O)Nc1nnnn1C	Soil treatment phytotoxicity, Corn	0

Prompt: Report Soil treatment phytotoxicity, Corn for Cn1ncnc1COCc1nc(C(F)(F)F)ccc1C(=O)Nc1nnnn1C please.
Response: 0

Prompt: Report Soil treatment phytotoxicity, Corn for Cn1nc(COCc2nc(C(F)(F)F)ccc2C(=O)Nc2nnnn2C)nc1C#N please.
Response: 0

Prompt: Report Soil treatment phytotoxicity, Corn for Cc1nc(COCc2nc(C(F)(F)F)ccc2C(=O)Nc2nnnn2C)nn1C please.
Response: 1

Prompt: Report Soil treatment phytotoxicity, Corn for Cc1nc(COCc2nc(C(F)(F)F)ccc2C(=S)Nc2nnnn2C)nn1C please.
Response: 1

Prompt: Report Soil treatment phytotoxicity, Corn for Cn1nnnc1NC(=O)c1ccc(C(F)(F)F)nc1Sc1nnnn1C please.
Response: 0

Prompt: Report Soil treatment phytotoxicity, Corn for Cn1nnnc1COCc1nc(C(F)(F)F)ccc1C(=O)Nc1nnnn1C please.
Response: 0

* * *

system: sorghum; test: Herbicidal activity test against upland field weeds (soil treatment test); assay type: in vivo; details: Sorghum, 50 g ai/ha, scale 0 (no control) to 100 (complete control)
Recorded plant injury at 50 g/ha, one value per entry.
Field: numeric (%). Do not append units.

MOLECULE	plant injury at 50 g/ha / %
CON(Cc1nnn(C)n1)c1nc(C(F)(F)F)ccc1C(=O)Nc1nnnn1C [Compound No. 2-30]	50
CON(Cc1nnn(C)n1)Cc1nc(C(F)(F)Cl)ccc1C(=O)Nc1nnnn1C [Compound No. 2-79]	30
Cn1nnc(COCc2nc(C(F)(F)F)ccc2C(=O)N(c2nnnn2C)S(C)(=O)=O)n1 [Compound No. 2-69]	70

Prompt: Report plant injury at 50 g/ha for Cn1nnc(COCc2nc(C(F)(F)F)ccc2C(=S)Nc2nnnn2C)n1 [Compound No. 2-106] please.
Response: 70
